The reported measurements were obtained from patent US8969325B2.

Each entry below carries its reported human TRPV1 H^+ (max % remain).
biological target: human TRPV1 (Homo sapiens (Human)); experiment: Acid Activation Assay (pH 5.0, intracellular Ca2+, FLIPR); assay type: cell-based; conditions: percentage of the maximal pH 5.0-induced response remaining; recombinant HEK293 hTRPV1 cells; maximum concentration tested 37.5 μM
# output: bare number, implied unit %

1. O=C1CCc2ccc(NC(=O)N[C@@H]3CC(CF)(CF)Oc4ccccc43)cc2N1 [Example 215] | 49
2. CN1Cc2ccc(NC(=O)N[C@@H]3CCOc4ccc(F)cc43)cc2NC1=O [Example 199] | 58
3. O=C1CCc2ccc(NC(=O)N[C@@H]3CC4(CCCC4)Oc4ccccc43)cc2N1 [Example 244] | 41
4. CN1C(=O)NCc2c(NC(=O)N[C@@H]3CCc4cc(C(C)(C)C)ccc43)cccc21 [Example 141] | 8
5. CN1Cc2ccc(NC(=O)N[C@@H]3CCc4cc(Cl)ccc43)cc2NC1=O [Example 17] | 54
6. CCC1(CC)C[C@@H](NC(=O)Nc2ccc3c(c2)NC(=O)CC3)c2ccc(C(F)(F)F)cc2O1 [Example 224] | 44
7. O=C1CCc2ccc(NC(=O)N[C@@H]3CCc4cc(F)ccc43)cc2N1 [Example 240] | 25
8. CC1(C)C[C@@H](NC(=O)Nc2ccc3c(c2)NC(=O)CC3)c2ccc(F)c(F)c2O1 [Example 33] | 42

**Q:** Tell me reported human TRPV1 H^+ (max % remain) for O=C(Nc1ccc2c(c1)NC(=O)N(CCO)C2)N[C@@H]1CCc2cc(F)ccc21 [Example 55] , tested with human TRPV1 (Homo sapiens (Human)).
**A:** 36

**Q:** What about this molecule? CCCC1(CCC)C[C@@H](NC(=O)Nc2ccc3c(c2)NC(=O)N(C)C3)c2cc(F)ccc2O1 [Example 185]
**A:** 61

**Q:** Next molecule up: CN1C(=O)CCc2ccc(NC(=O)N[C@@H]3CC(CF)(CF)Oc4c(F)cccc43)cc21 [Example 281]
**A:** 86

**Q:** Field entry: CN1C(=O)NCc2c(NC(=O)N[C@@H]3C[C@](C)(C(F)(F)F)Oc4ccccc43)cccc21 [Example 166]
**A:** 10

**Q:** Query CN1C(=O)NCc2c(NC(=O)N[C@@H]3C[C@@](C)(CF)Oc4ccccc43)cccc21 [Example 164] next
**A:** 35

###

target: human TRPV1 (Homo sapiens (Human)); assay: Capsaicin Activation Assay (intracellular Ca2+, FLIPR); conditions: recombinant HEK293 cells expressing hTRPV1, 50 nM capsaicin
Consider the cut-off 100 nM. If the recorded IC50 is strictly smaller, the label is met; if not, the label is not met.

1) CC1(C)C[C@@H](NC(=O)Nc2ccc3c(c2)NC(=O)N(CCO)C3)c2cccc(F)c2O1 [Example 42] | not met

**Q:** Is the reported IC50 for C[C@@]1(C(F)(F)F)C[C@@H](NC(=O)Nc2ccc3c(c2)NC(=O)CO3)c2ccccc2O1 [Example 125] strictly below 100 nM?
**A:** not met

###

target: human TRPV1 (Homo sapiens (Human)); test: Acid Activation Assay (pH 5.0, intracellular Ca2+, FLIPR); format: cell-based; conditions: percentage of the maximal pH 5.0-induced response remaining; recombinant HEK293 hTRPV1 cells; maximum concentration tested 37.5 μM
Exam item: assign Condition met to entries whose human TRPV1 H^+ (max % remain) is below 60% and Condition not met to entries at or above 60%. Note that a value of exactly 60% receives Condition not met.

1) Cn1c(=O)ccc2c(NC(=O)N[C@@H]3CC(C)(C)Oc4cc(Br)ccc43)cccc21 [Example 89] | Condition met
2) CN1C(=O)NCc2c(NC(=O)N[C@@H]3CC(C)(C)Oc4c(F)cccc43)cccc21 [Example 135] | Condition met
3) O=C1CCc2ccc(NC(=O)N[C@@H]3CC(CF)(CF)Oc4cc(C(F)(F)F)ccc43)cc2N1 [Example 320] | Condition not met
4) CN1C(=O)CCc2ccc(NC(=O)N[C@@H]3CC(C)(C)Oc4nc(C(F)(F)F)ccc43)cc21 [Example 295] | Condition not met
5) CN1Cc2ccc(NC(=O)N[C@@H]3CCc4cc(C(F)(F)F)ccc43)cc2NC1=O [Example 174] | Condition met
6) Cn1c(=O)ccc2c(NC(=O)N[C@@H]3C[C@@](C)(C(F)F)Oc4ccccc43)cccc21 [Example 26] | Condition met
7) CN1C(=O)CCc2ccc(NC(=O)N[C@@H]3C[C@@](C)(CF)Oc4cc(Cl)ccc43)cc21 [Example 291] | Condition not met
8) CN1Cc2ccc(NC(=O)N[C@@H]3CC(CF)(CF)Oc4c(F)cc(F)cc43)cc2NC1=O [Example 187] | Condition met
9) Cn1c(=O)ccc2c(NC(=O)N[C@H]3CC(C)(C)Oc4ccc(F)cc43)cccc21 [Example 98] | Condition met
10) O=C(Nc1ccc2c(c1)NC(=O)N(CCO)C2)N[C@@H]1CCOc2cc(C(F)(F)F)ccc21 [Example 54] | Condition met

**Q:** Say whether its human TRPV1 H^+ (max % remain) is strictly beneath 60%. Entry: Cn1c(=O)ccc2c(NC(=O)N[C@@H]3CC(C)(C)Oc4c3ccc(Cl)c4F)cccc21 [Example 85]
**A:** Condition met

**Q:** Can you check O=C1CCc2ccc(NC(=O)N[C@H]3CCOc4cc(OC(F)(F)F)ccc43)cc2N1 [Example 234] next?
**A:** Condition met

**Q:** Next entry: CCCC1(CCC)C[C@@H](NC(=O)Nc2ccc3c(c2)N(C)C(=O)CC3)c2cccc(F)c2O1 [Example 271]
**A:** Condition not met

**Q:** Follow-up entry: CC1(C)C[C@@H](NC(=O)Nc2ccc3c(c2)NC(=O)N(CCO)C3)c2ccc(Br)cc2O1 [Example 63]
**A:** Condition met

**Q:** Would you kindly repeat that for Cn1c(=O)ccc2c(NC(=O)N[C@@H]3C[C@](C)(C(F)F)Oc4ccccc43)cccc21 [Example 28] ?
**A:** Condition met

**Q:** Same read-out for CN1Cc2ccc(NC(=O)N[C@H]3CC(C)(C)Oc4ccc(F)cc43)cc2NC1=O [Example 204] ?
**A:** Condition met

**Q:** Also CCC1(CC)C[C@@H](NC(=O)Nc2cccc3c2CNC(=O)N3C)c2ccc(F)cc2O1 [Example 143] , if possible.
**A:** Condition met

**Q:** // next record CN1Cc2ccc(NC(=O)N[C@@H]3CC(CF)(CF)Oc4cc(F)ccc43)cc2NC1=O [Example 209]
**A:** Condition met

**Q:** Another molecule to check: CN1C(=O)CCc2c(NC(=O)N[C@@H]3CC(CF)(CF)Oc4cc(Cl)ccc43)cccc21 [Example 254]
**A:** Condition not met

**Q:** Entry CC1(C)C[C@@H](NC(=O)Nc2ccc3c(c2)NC(=O)CO3)c2ccc(F)c(F)c2O1 [Example 117] please
**A:** Condition not met

**Q:** CCC1(CC)C[C@@H](NC(=O)Nc2ccc3c(c2)NC(=O)CC3)c2ccc(Cl)c(Cl)c2O1 [Example 226] , same question.
**A:** Condition met

**Q:** # iterate: Cn1c(=O)ccc2c(NC(=O)N[C@@H]3C[C@@](C)(C(F)(F)F)Oc4ccccc43)cccc21 [Example 25]
**A:** Condition not met

**Q:** And the next one, CN1C(=O)CCc2ccc(NC(=O)N[C@@H]3C[C@@](C)(CF)Oc4cc(C(F)(F)F)ccc43)cc21 [Example 289] ?
**A:** Condition not met

**Q:** Now consider CCC1(CC)C[C@@H](NC(=O)Nc2ccc3c(c2)NC(=O)CO3)c2ccc(C(F)(F)F)cc2O1 [Example 103] and answer again.
**A:** Condition not met

**Q:** Try C[C@]1(C(F)F)C[C@@H](NC(=O)Nc2ccc3c(c2)NC(=O)N(CCO)C3)c2ccccc2O1 [Example 60] next.
**A:** Condition met

**Q:** And then O=C1CCc2ccc(NC(=O)N[C@@H]3CC(CF)(CF)Oc4c(F)cccc43)cc2N1 [Example 216] , what is it?
**A:** Condition met

**Q:** Query O=C(Nc1ccc2c(c1)NC(=O)N(CCO)C2)N[C@@H]1CC(CF)(CF)Oc2ccccc21 [Example 314] next
**A:** Condition met

**Q:** Now consider CN1C(=O)CCc2ccc(NC(=O)N[C@@H]3C[C@](C)(C(F)(F)F)Oc4ccccc43)cc21 [Example 326] .
**A:** Condition not met

**Q:** Can you handle CN1C(=O)NCc2c(NC(=O)N[C@@H]3C[C@@](C)(CF)Oc4cc(Cl)ccc43)cccc21 [Example 14] next?
**A:** Condition met

###

target: human TRPV1 (Homo sapiens (Human), UniProt Q8NER1); test: Capsaicin Activation Assay (intracellular Ca2+, FLIPR); settings: recombinant HEK293 cells expressing hTRPV1, 50 nM capsaicin
Sequence (Q8NER1 whole entry): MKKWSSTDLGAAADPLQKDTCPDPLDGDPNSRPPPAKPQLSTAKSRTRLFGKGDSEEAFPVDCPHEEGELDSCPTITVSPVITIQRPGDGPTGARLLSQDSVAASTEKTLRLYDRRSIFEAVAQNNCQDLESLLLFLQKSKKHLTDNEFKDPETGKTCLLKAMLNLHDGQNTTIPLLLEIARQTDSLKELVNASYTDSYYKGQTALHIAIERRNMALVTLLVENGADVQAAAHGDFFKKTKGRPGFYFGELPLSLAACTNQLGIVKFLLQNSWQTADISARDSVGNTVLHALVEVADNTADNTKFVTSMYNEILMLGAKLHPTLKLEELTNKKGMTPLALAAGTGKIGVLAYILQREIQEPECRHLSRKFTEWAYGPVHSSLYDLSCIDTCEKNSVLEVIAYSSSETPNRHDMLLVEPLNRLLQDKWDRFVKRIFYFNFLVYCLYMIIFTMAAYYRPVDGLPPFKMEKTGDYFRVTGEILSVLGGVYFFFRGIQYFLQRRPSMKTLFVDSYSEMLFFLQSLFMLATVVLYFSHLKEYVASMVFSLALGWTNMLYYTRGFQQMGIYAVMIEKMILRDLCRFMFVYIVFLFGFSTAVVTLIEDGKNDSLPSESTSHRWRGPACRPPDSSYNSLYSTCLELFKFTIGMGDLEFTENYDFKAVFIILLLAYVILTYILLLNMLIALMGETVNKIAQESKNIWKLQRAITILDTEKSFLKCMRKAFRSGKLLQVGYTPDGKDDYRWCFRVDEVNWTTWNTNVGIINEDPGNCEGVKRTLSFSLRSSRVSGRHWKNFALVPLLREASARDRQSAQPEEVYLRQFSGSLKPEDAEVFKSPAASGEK
Below is a list of entries, each paired with its recorded IC50 value.
Express your answer in nM, writing the number without its unit.

Worked cases, IC50 given:
1) CC1(C)C[C@@H](NC(=O)Nc2ccc3c(c2)NC(=O)N(CCO)C3)c2ccc(F)cc2O1 [Example 43] | 94
2) CCC1(CC)C[C@@H](NC(=O)Nc2ccc3c(c2)NC(=O)CO3)c2cccc(F)c2O1 [Example 101] | 95
3) CN1C(=O)NCc2c(NC(=O)N[C@@H]3CC(C)(C)Oc4ccc(F)cc43)cccc21 [Example 157] | 47
4) CN1C(=O)NCc2c(NC(=O)N[C@@H]3C[C@@](C)(CF)Oc4cc(Cl)ccc43)cccc21 [Example 14] | 63

**Q:** Recorded IC50 for C[C@@]1(C(F)F)C[C@@H](NC(=O)Nc2ccc3c(c2)NC(=O)CC3)c2ccc(Cl)cc2O1 [Example 212] , please?
**A:** 61

**Q:** Continue with CN1C(=O)NCc2c(NC(=O)N[C@@H]3CCOc4c3cccc4C(C)(C)C)cccc21 [Example 142]
**A:** 110

**Q:** Also need CN(CCO)C1Cc2ccc(NC(=O)N[C@@H]3CC(CF)(CF)Oc4cc(Cl)ccc43)cc2NC1=O (stereo partly shown) [Example 304] , thanks.
**A:** 230

**Q:** Cn1c(=O)ccc2c(NC(=O)N[C@@H]3CC(C)(C)Oc4c3cccc4C(F)(F)F)cccc21 [Example 93] ?
**A:** 39
